experimental.target: HLA-A02.01 class I MHC molecule (prepared complex) (human)
experiment.summary: dissociation of peptide-MHC-I complex at 37 C, 125I-labelled b2m, scintillation
conditions: remark: other sources report otherwise
Catalogue of Stability (half-life (hr.)) values
Respond with the bare value in min.

- binder: "IMQLMPFGCL"
  Stability (half-life (hr.)) [min]: 30.9
- binder: "MQLMPFGCL"
  Stability (half-life (hr.)) [min]: 22.1
- binder: "IMQLMPFGC"
  Stability (half-life (hr.)) [min]: 22.2
- binder: "CLTSTVQLIM"
  Stability (half-life (hr.)) [min]: 0
- binder: "MQLMPFGCLL"
  Stability (half-life (hr.)) [min]: 22.9

Challenge: Report Stability (half-life (hr.)) for STVQLIMQL please.
Response given: 0

Challenge: Request: QLIMQLMPFG
Response given: 0

Challenge: Request: VQLIMQLMPF
Response given: 0

Challenge: Request: LIMQLMPFG
Response given: 0

Challenge: Request: QLIMQLMPF
Response given: 20.4
